# test protocol: Thermodynamic solubility
# Type: physicochemical
# cond: pH 6.8, aqueous buffer, thermodynamic from solid
quantity name: solubility at 24 h (µM)

molecule: CCC[C@H](NC(=O)C1C[C@@]2(CN1C(=O)[C@@H](NC(=O)[C@@H](NC(=O)[C@H]1CCCN1CC)C1CCCCC1)C(C)(C)C)C(C)(C)C21CCC1)C(=O)C(=O)NC1CC1 (stereo partly drawn)
unit of measure: µM
observed value: 92
//
molecule: CCC[C@H](NC(=O)[C@@H]1C[C@@]2(CN1C(=O)[C@@H](NC(=O)[C@@H](NC(=O)[C@@H]1CCCCN1C(C)C)C(C)(C)C)C(C)(C)C)C(C)(C)C21CCC1)C(=O)C(=O)NC1CC1
unit of measure: µM
observed value: 64

A. CCCC(NC(=O)[C@@H]1C[C@@]2(CN1C(=O)[C@@H](NC(=O)[C@@H](NC(=O)[C@@H]1CCCN(C(C)C)C1)C1CCCCC1)C(C)(C)C)C(C)(C)C21CCC1)C(=O)C(=O)NC1CC1 (stereo in doubt)
B. CCC[C@H](NC(=O)[C@@H]1C[C@@]2(CN1C(=O)[C@@H](NC(=O)[C@@H](NC(=O)[C@@H]1CCCN1C)C1CCCCC1)C(C)(C)C)C(C)(C)C21CCC1)C(=O)C(=O)NC1CC1
C. CCC[C@H](NC(=O)[C@@H]1C[C@@]2(CN1C(=O)[C@@H](NC(=O)[C@@H](NC(=O)[C@@H]1CCCCN1C(C)C)C1CCCCC1)C(C)(C)C)C(C)(C)C21CCC1)C(=O)C(=O)NC(C)C
Rank order required: solubility at 24 h, descending. Form field (ranking): labels in requested order.
A, B, C
